A set of molecules tested on Phosphodiesterase 10A (PDE10A) (Homo sapiens (Human), UniProt Q9Y233), with measured IC50:
A number alone suffices; assume nM.

Answered examples (3):
In [3]: df
Out[3]:
                                   molecule  readout_kind  readout_number
0  Nc1nc(-n2ncc3ccncc32)nc(NCc2cncs2)c1Br [Example 36]          IC50            0.06
1  CCNc1nc(-n2ncc3ccccc32)nc(N)c1Br [Example 2]          IC50            21.9
2  CCNc1nc(-n2cc(-c3ccncn3)cn2)nc(N)c1Br [Example 61]          IC50              37

Item Nc1nc(-n2ncc3ccccc32)nc(NCC2CC2)c1Br [Example 1] ; assay system Phosphodiesterase 10A (PDE10A) (Homo sapiens (Human), UniProt Q9Y233); IC50 reported as 52.5

Item C#CCNc1nc(-n2cc(-c3cnccn3)cn2)nc(N)c1Br [Example 30] ; assay system Phosphodiesterase 10A (PDE10A) (Homo sapiens (Human), UniProt Q9Y233); IC50 reported as 4.5

Item CCNc1nc(-n2cc(-c3ccncn3)cn2)nc(NCc2nc3ccccc3[nH]2)c1Br [Example 77] ; assay system Phosphodiesterase 10A (PDE10A) (Homo sapiens (Human), UniProt Q9Y233); IC50 reported as 29.3

Item Nc1nc(-n2cc(C(=O)O)cn2)nc(NCC2CC2)c1Br [Example 51] ; assay system Phosphodiesterase 10A (PDE10A) (Homo sapiens (Human), UniProt Q9Y233); IC50 reported as 29.9

Item CCNc1nc(-n2cc(C(=O)N3CCOCC3)cn2)nc(N)c1Br [Example 53] ; assay system Phosphodiesterase 10A (PDE10A) (Homo sapiens (Human), UniProt Q9Y233); IC50 reported as 8.2

Item CCNc1nc(-n2ncc3ccccc32)nc(N)c1Cl [Example 64] ; assay system Phosphodiesterase 10A (PDE10A) (Homo sapiens (Human), UniProt Q9Y233); IC50 reported as 12.4

Item Cc1ncsc1CNc1nc(-n2ncc3ncccc32)nc(N)c1Br [Example 41] ; assay system Phosphodiesterase 10A (PDE10A) (Homo sapiens (Human), UniProt Q9Y233); IC50 reported as 0.6
